Experiment summary: Toxicity in Leuciscus idus (golden orfe) after 96 hr
Format: organism-based
Conditions: in vivo
Measurement name: LC50 at 96 h
Field note: include the unit after the figure.

(Q) Using the record for O=[N+]([O-])NC1=NCCN1Cc1ccc(Cl)nc1 , report its LC50 at 96 h.
(A) 237 µg/mL

----------
Experiment summary: Toxicity in Rattus norvegicus (rat) […]
Format: organism-based
Conditions: in vivo
Measurement name: LD50

(Q) Sample O=[N+]([O-])NC1=NCCN1Cc1ccc(Cl)nc1 — what was its LD50?
(A) > 5000 mg/kg
